# systemTested: GST-VEGFR2 (Homo sapiens)
# Construct: GST-VEGFR2, baculovirus expressed recombinant constructs of the intracellular domains of human TIE2 tagged by GST
# experimentNotes: VEGF-R2 enzyme assay (VEGF-E), LANCE method
# protocolConditions: 75 μM ATP
pIC50: −log10 of the molar value.
observedProperty: pIC50

Cn1cnc(CC(=O)Nc2nc3cc(Oc4ccc(NC(=O)Nc5cc(C(F)(F)F)ccc5F)cc4)ccc3[nH]2)c1 = > 7.00
O=C(CCc1cccnc1)Nc1nc2cc(Oc3ccc(NC(=O)Nc4cc(C(F)(F)F)ccc4F)cc3)ccc2[nH]1 = > 7.00
COC(=O)Nc1nc2cc(Oc3ccc(NC(=O)Nc4cc([N+](=O)[O-])ccc4F)cc3)ccc2[nH]1 = > 7.00
CCCCNC(=O)Nc1nc2ccc(Oc3ccc(NC(=O)Nc4ccc(Cl)c(C(F)(F)F)c4)cc3)cc2s1 = > 7.00
COC(=O)Nc1nc2cc(Oc3ccc(NC(=O)Nc4ccc(OC)cc4)cc3)ccc2[nH]1 = > 7.00
O=C(Nc1ccc(Oc2ccc3[nH]c(NC(=O)C4CCCC4)nc3c2)cc1)Nc1cc(C(F)(F)F)ccc1F = > 7.00

Query compound follows.
The value of pIC50 measured for the compound "COC(=O)Nc1nc2cc(Oc3ccc(NC(=O)Nc4cccc(Oc5ccccc5)c4)cc3)ccc2[nH]1" turned out to be 6.00 to 7.00

---

This section presents molecules with their documented pIC50 values.
# systemTested: GST-VEGFR2 (Homo sapiens, UniProt P35968)
# Construct: GST-VEGFR2, baculovirus expressed recombinant constructs of the intracellular domains of human TIE2 tagged by GST; made in house
# Sequence (P35968 786-1356 limits assumed): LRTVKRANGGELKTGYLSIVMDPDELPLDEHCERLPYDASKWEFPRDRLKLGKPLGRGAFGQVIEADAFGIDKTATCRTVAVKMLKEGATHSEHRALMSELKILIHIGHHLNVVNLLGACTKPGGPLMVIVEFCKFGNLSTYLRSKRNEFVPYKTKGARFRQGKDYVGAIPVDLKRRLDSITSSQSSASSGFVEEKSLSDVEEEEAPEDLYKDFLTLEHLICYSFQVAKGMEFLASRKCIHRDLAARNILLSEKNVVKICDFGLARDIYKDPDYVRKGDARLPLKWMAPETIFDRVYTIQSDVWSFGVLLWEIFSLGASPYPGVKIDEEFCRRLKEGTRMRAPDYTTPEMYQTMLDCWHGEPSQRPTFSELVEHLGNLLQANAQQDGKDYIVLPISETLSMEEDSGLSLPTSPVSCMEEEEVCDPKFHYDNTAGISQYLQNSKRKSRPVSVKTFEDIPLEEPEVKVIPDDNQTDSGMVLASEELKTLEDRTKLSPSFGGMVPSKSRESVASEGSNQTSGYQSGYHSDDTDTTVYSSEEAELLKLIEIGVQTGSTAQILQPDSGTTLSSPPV
# experimentNotes: VEGF-R2 enzyme assay (VEGF-E), LANCE method
# Type: biochemical
# protocolConditions: 75 μM ATP
pIC50: −log10 of the molar value. Counter-ions that a name gives are not always drawn.

Consider the reported pIC50 for these molecules:
COC(=O)Nc1nc2ncc(Oc3ccc(NC(=O)Nc4cc(C(F)(F)F)ccc4Cl)cc3)cc2[nH]1 [Example 73, dihydrochloride] = > 7.00
COC(=O)Nc1nc2ccc(Oc3ccc(NC(=O)Nc4cc(C(F)(F)F)ccc4F)c[n+]3[O-])cc2[nH]1 = 6.00 to 7.00
COC(=O)Nc1nc2cc(Oc3cccc(NC(=O)Nc4ccc(SC(F)(F)F)cc4)c3)ccc2[nH]1 = > 7.00
CN(C)CCCC(=O)Nc1nc2cc(Oc3ccc(NC(=O)Nc4cc(C(F)(F)F)ccc4F)cc3)ccc2[nH]1 = > 7.00
COC(=O)Nc1nc2ccc(Oc3ccc(NC(=O)Nc4cc(C(F)(F)F)ccc4F)cc3)cc2o1 = > 7.00
CN1CCN(CCCNc2nc3ccc(Oc4ccc(NC(=O)Nc5cc(C(F)(F)F)ccc5F)cc4)cc3[nH]2)CC1 = > 7.00
COC(=O)Nc1nc2cc(Oc3ccc(NC(=O)Nc4cc(Cl)ccc4Cl)cn3)ccc2[nH]1 [Example 112, dihydrochloride] = 6.00 to 7.00
COC(=O)Nc1nc2ccc(Sc3ccc(NC(=O)Nc4cc([N+](=O)[O-])ccc4C)cc3)cc2[nH]1 = 5.00 to 6.00

The value of pIC50 measured for the molecule COC(=O)Nc1nc2nc(Oc3ccc(NC(=O)Nc4cc(C(F)(F)F)ccc4F)cc3)ccc2[nH]1 [Example 69, dihydrochloride] turned out to be > 7.00

The value of pIC50 measured for the molecule "CN1CCN(CCNc2nc3cc(Oc4ccc(NC(=O)Nc5cc(C(F)(F)F)ccc5F)cc4)ccc3[nH]2)CC1" turned out to be > 7.00

The value of pIC50 measured for the molecule "CCc1cccc(NC(=O)Nc2cccc(Oc3ccc4[nH]c(NC(=O)OC)nc4c3)c2)c1" turned out to be > 7.00

The value of pIC50 measured for the molecule "COC(=O)Nc1nc2cc(S(=O)(=O)c3ccc(NC(=O)Nc4cc(C(F)(F)F)ccc4F)cc3)ccc2[nH]1" turned out to be 5.00 to 6.00

The value of pIC50 measured for the molecule "COC(=O)Nc1nc2cc(Oc3ccc(NC(=O)Nc4ccc(F)cc4)cc3)ccc2[nH]1" turned out to be > 7.00

The value of pIC50 measured for the molecule "CC(C)CCC(=O)Nc1nc2cc(Oc3ccc(NC(=O)Nc4cc(C(F)(F)F)ccc4F)cc3)ccc2[nH]1" turned out to be > 7.00

The value of pIC50 measured for the molecule "COC(=O)Nc1nc2cc(Oc3cccc(NC(=O)Nc4ccccc4OC(F)(F)F)c3)ccc2[nH]1" turned out to be > 7.00

The value of pIC50 measured for the molecule "COC(=O)Nc1nc2cc(Oc3cccc(NC(=O)Nc4cc(C(C)(C)C)on4)c3)ccc2[nH]1" turned out to be > 7.00

The value of pIC50 measured for the molecule "COC(=O)Nc1nc2cc(Oc3cccc(NC(=O)Nc4cccc(SC(F)(F)F)c4)c3)ccc2[nH]1" turned out to be > 7.00

The value of pIC50 measured for the molecule "COC(=O)Nc1nc2cc(Oc3ccc(NC(=O)Nc4ccc(Cl)c(C(F)(F)F)c4)cc3)ccc2[nH]1" turned out to be > 7.00

The value of pIC50 measured for the molecule "COCCOCC(=O)Nc1nc2cc(Oc3ccc(NC(=O)Nc4nnc(C(C)(C)C)s4)cc3)ccc2[nH]1" turned out to be > 7.00

The value of pIC50 measured for the molecule "O=C(Nc1ccc(Oc2ccc3nc(NC(=O)c4cccs4)[nH]c3c2)cc1)Nc1cc(C(F)(F)F)ccc1F" turned out to be > 7.00

The value of pIC50 measured for the molecule "CN(C)CC(=O)Nc1nc2cc(Oc3ccc(NC(=O)Nc4cc(C(F)(F)F)ccc4F)cc3)ccc2[nH]1" turned out to be > 7.00

The value of pIC50 measured for the molecule "COC(=O)Nc1nc2cc(Oc3ccc(NC(=O)Nc4cccc(Cl)c4)cc3)ccc2[nH]1" turned out to be > 7.00

The value of pIC50 measured for the molecule "O=C(Nc1ccc(Cl)cc1)Nc1nc2cc(Oc3ccc(NC(=O)Nc4cc(C(F)(F)F)ccc4F)cc3)ccc2[nH]1" turned out to be > 7.00

The value of pIC50 measured for the molecule "COC(=O)Nc1nc2cc(Oc3cccc(NC(=O)Nc4ccc(Cl)c(C(F)(F)F)c4)c3)ccc2[nH]1" turned out to be > 7.00

The value of pIC50 measured for the molecule "COC(=O)Nc1nc2cc(Oc3cccc(NC(=O)Nc4cc(Cl)ccc4Cl)c3)ccc2[nH]1" turned out to be 6.00 to 7.00
